B1: H2-Kb / B7 (parent)
chain 1: GQQVQQSPTSLVLQEGENAELQCNFSTSLNSMQWFYQRPGGSLVSVFYNPSGTKQSGRLTSTTVIKERRSSLHISSSQITDSGTYLCAMERDMGYKLTFGTGTSLLVDP
chain 2: EAAVTQSPRNKVAVTGGKVTLSCNQTNNHNNMYWYRQDTGHGLRLIHYSYGAGSTEKGDIPDGYKASRPSQENFSLILELATPSQTSVYFCASGDPGDQDTQYFGPGTRLLVL
chain 3: not shown
chain 4: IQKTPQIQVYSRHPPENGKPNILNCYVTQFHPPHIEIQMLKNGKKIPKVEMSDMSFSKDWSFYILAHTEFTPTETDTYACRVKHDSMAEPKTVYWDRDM
chain 5: SIINFEKL

Variants of: B1
Assay: % of reporter cells activated (NFAT-GFP), raw; note: test concentration or dose not given here
Conditions: with B7; scale: % of reporter cells activated
readout_label: ratio to parent
Answer field: number only, no words.

Example entries begin here.
> print(dat)
   mutation.id    readout.label  measured
1  chain 5 E6H  ratio to parent      1.65
2  chain 5 I2C  ratio to parent      1.11
3  chain 5 F5G  ratio to parent      1.03
4  chain 5 K7H  ratio to parent      1.66

Reported ratio to parent for chain 5 L8N : what is it?
1

What about this variant? chain 5 E6C
1.46

What about this variant? chain 5 F5T
1.05

What about this variant? chain 5 L8H
1.23

What about this variant? chain 5 S1E
1.29
